ASSAY_SYSTEM: KRAS WT (Homo sapiens (Human), UniProt P01116+P62937)
Sequence (P01116 other isoform, or with tags, fused parts or gaps, one chain of several): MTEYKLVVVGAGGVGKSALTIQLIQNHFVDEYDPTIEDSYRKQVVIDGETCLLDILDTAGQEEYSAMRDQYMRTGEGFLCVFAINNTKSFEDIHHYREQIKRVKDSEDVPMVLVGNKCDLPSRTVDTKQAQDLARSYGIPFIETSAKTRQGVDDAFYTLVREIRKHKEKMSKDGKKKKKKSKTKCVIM
EXPERIMENTAL_PROTOCOL: Ras-Raf disruption/FRET/MOA assay (BRAF RBD, Cyclophilin A)
Type: biochemical
MEASUREMENT_CONDITIONS: read-out: KRAS WT FRET data IC50
MEASURED_ATTRIBUTE: IC50

{"columns": ["COMPOUND", "VALUE_OBSERVED"],
 "data": [
  ["CCn1c(-c2cnccc2COC)c2c3cc(ccc31)-c1cc(O)cc(c1)C[C@H](NC(=O)[C@@H](NC(C)=O)C(C)C)C(=O)N1CCC[C@H](N1)C(=O)OCC(C)(C)C2 [Compound A58]", "1000 to 10000 nM"],
  ["CCn1c(-c2cnccc2COC)c2c3cc(ccc31)-c1cc(O)cc(c1)C[C@H](NC(=O)[C@H](C(C)C)N(C)C(=O)[C@H]1CNC[C@H]1C(F)(F)F)C(=O)N1CCC[C@H](N1)C(=O)OCC(C)(C)C2 [Compound A216]", "10 to 100 nM"],
  ["CCn1c(-c2cccnc2[C@H](C)OC)c2c3cc(ccc31)-c1cc(O)cc(c1)C[C@H](NC(=O)[C@H](C(C)C)N(C)C(=O)[C@H]1CN[C@@H]3CCO[C@H]13)C(=O)N1CCC[C@H](N1)C(=O)OCC(C)(C)C2 [Compound A231]", "10 to 100 nM"]
]}

---

Quick reference: IC50 of the listed items.
ASSAY_SYSTEM: NRAS G12C (Homo sapiens (Human), UniProt P01111+P62937, G12C)
Sequence (P01111 whole entry G12C): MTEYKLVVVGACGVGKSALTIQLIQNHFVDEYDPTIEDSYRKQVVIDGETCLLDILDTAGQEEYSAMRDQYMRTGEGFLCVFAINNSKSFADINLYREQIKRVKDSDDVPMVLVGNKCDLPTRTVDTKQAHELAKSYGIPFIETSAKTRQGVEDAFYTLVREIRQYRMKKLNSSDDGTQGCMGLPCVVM
Sequence (P62937 whole entry): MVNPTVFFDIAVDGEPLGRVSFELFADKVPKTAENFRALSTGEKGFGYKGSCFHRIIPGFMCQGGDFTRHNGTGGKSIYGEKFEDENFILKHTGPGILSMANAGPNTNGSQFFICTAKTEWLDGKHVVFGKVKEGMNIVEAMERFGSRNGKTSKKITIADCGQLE
EXPERIMENTAL_PROTOCOL: Ras-Raf disruption/FRET/MOA assay (BRAF RBD, Cyclophilin A)
Format: biochemical
MEASUREMENT_CONDITIONS: read-out: NRAS G12C FRET data IC50
MEASURED_ATTRIBUTE: IC50

{"columns": ["MOLECULE", "VALUE_OBSERVED"],
 "data": [
  ["CCn1c(-c2cccnc2[C@H](C)OC)c2c3cc(ccc31)-c1csc(n1)C[C@H](NC(=O)[C@H](C(C)C)N(C)C(=O)N1CCN3CCOCC3C1)C(=O)N1CCC[C@H](N1)C(=O)OCC(C)(C)C2 (stereo partly shown)", "100 to 1000 nM"],
  ["CCn1c(-c2cnccc2COC)c2c3cc(ccc31)-c1cc(O)cc(c1)C[C@H](NC(=O)[C@H](C(C)C)N1CCCC1=O)C(=O)N1CCC[C@H](N1)C(=O)OCC(C)(C)C2", "100 to 1000 nM"],
  ["CCn1c(-c2cccnc2[C@H](C)OC)c2c3cc(ccc31)-c1csc(n1)C[C@H](NC(=O)[C@H](C(C)C)N(C)C(=O)N1C[C@H](C)N(C)C[C@H]1C)C(=O)N1CCC[C@H](N1)C(=O)OCC(C)(C)C2", "1000 to 10000 nM"],
  ["CCn1c(-c2cccnc2[C@H](C)OC)c2c3cc(ccc31)-c1csc(n1)C[C@H](NC(=O)C1(F)CCC1)C(=O)N1CCC[C@H](N1)C(=O)OCC(C)(C)C2", "100 to 1000 nM"],
  ["CCn1c(-c2cccnc2[C@H](C)OC)c2c3cc(ccc31)-c1cccc(c1)C[C@H](NC(=O)[C@H](C(C)C)N(C)C(C)=O)C(=O)N1CCC[C@H](N1)C(=O)OCC(C)(C)C2", "1000 to 10000 nM"],
  ["CCn1c(-c2cccnc2[C@H](C)OC)c2c3cc(ccc31)-c1cc(O)cc(c1)C[C@H](NC(=O)[C@H](C(C)C)N(C)C(=O)[C@H]1CCN(C3CC3)C1)C(=O)N1CCC[C@H](N1)C(=O)OCC(C)(C)C2", "1000 to 10000 nM"],
  ["CCn1c(-c2cccnc2[C@H](C)OC)c2c3cc(ccc31)-c1csc(n1)C[C@H](NC(=O)[C@H](C(C)C)N(C)C(=O)N1CCC13COC3)C(=O)N1CCC[C@H](N1)C(=O)OCC(C)(C)C2", "10 to 100 nM"],
  ["CCn1c(-c2cccnc2[C@H](C)OC)c2c3cc(ccc31)-c1csc(n1)C[C@H](NC(=O)[C@H](C(C)C)N(C)C(=O)N1CCO[C@H](c3ccccc3)C1)C(=O)N1CCC[C@H](N1)C(=O)OCC(C)(C)C2", "10 to 100 nM"],
  ["CCn1c(-c2cccnc2[C@H](C)OC)c2c3cc(ccc31)-c1cc(O)cc(c1)C[C@H](NC(=O)[C@H](C(C)C)N(C)C(=O)[C@@H]1[C@@H]3CNC[C@@H]31)C(=O)N1CCC[C@H](N1)C(=O)OCC(C)(C)C2", "10 to 100 nM"],
  ["CCn1c(-c2cccnc2[C@H](C)OC)c2c3cc(ccc31)-c1csc(n1)C[C@H](NC(=O)[C@H](C(C)C)N(C)C(=O)N1CCOCC13COC3)C(=O)N1CCC[C@H](N1)C(=O)OCC(C)(C)C2", "100 to 1000 nM"],
  ["CCn1c(-c2ccccc2[C@H](C)OC)c2c3cc(ccc31)-c1csc(n1)C[C@H](NC(=O)[C@H](C(C)C)N(C)C(=O)[C@H]1CCN(C(=O)OC3COC3)C1)C(=O)N1CCC[C@H](N1)C(=O)OCC(C)(C)C2", "1000 to 10000 nM"],
  ["CCn1c(-c2cccnc2[C@H](C)OC)c2c3cc(ccc31)-c1csc(n1)C[C@H](NC(=O)[C@H](C(C)C)N(C)C(=O)N1CC3CCC1CN3C)C(=O)N1CCC[C@H](N1)C(=O)OCC(C)(C)C2", "100 to 1000 nM"],
  ["CCn1c(-c2cccnc2[C@H](C)OC)c2c3cc(ccc31)-c1cc(O)cc(c1)C[C@H](NC(=O)[C@H](C(C)C)N(C)C(=O)C1(C(=O)O)CC1)C(=O)N1CCC[C@H](N1)C(=O)OCC(C)(C)C2", "1000 to 10000 nM"]
]}

---

ASSAY_SYSTEM: K-Ras G12C(GMP-PNP) binding to BRAF RBD (Homo sapiens (Human), UniProt P01116+P62937, G12C)
Sequence (P01116 other isoform, or with tags, fused parts or gaps G12C): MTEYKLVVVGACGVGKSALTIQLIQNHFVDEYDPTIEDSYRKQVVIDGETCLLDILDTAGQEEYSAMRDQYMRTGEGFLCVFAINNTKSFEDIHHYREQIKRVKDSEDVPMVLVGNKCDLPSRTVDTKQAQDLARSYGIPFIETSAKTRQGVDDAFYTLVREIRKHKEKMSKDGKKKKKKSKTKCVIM
Sequence (P62937 whole entry): as the sequence (P62937 whole entry) above
EXPERIMENTAL_PROTOCOL: Disruption of BRAF RBD interaction with K-Ras (FRET / MOA assay), K-Ras G12C
Format: biochemical
MEASUREMENT_CONDITIONS: read-out: KRAS G12C FRET IC50
pIC50: −log10 of the molar value.
Quick reference: pIC50 of the listed items.

{"columns": ["MOL_SMILES", "pIC50"],
 "data": [
  ["CCn1c(-c2cccnc2[C@H](C)OC)c2c3cc(ccc31)-c1csc(n1)C[C@H](NC(=O)[C@H](C(C)C)N(C)C(=O)N1CC(N3CCOCC3)C1)C(=O)N1CCC[C@H](N1)C(=O)OCC(C)(C)C2", "7.00 to 8.00"],
  ["CCn1c(-c2cccnc2[C@H](C)OC)c2c3cc(ccc31)-c1csc(n1)C[C@H](NC(=O)[C@H](C(C)C)N(C)C(=O)N1C[C@H]3CCN(C)[C@H]3C1)C(=O)N1CCC[C@H](N1)C(=O)OCC(C)(C)C2", "7.00 to 8.00"],
  ["CCn1c(-c2cccnc2[C@H](C)OC)c2c3cc(ccc31)-c1csc(n1)C[C@H](NC(=O)[C@H](C(C)C)N(C)C(=O)N1CCC13CCS(=O)(=O)CC3)C(=O)N1CCC[C@H](N1)C(=O)OCC(C)(C)C2", "6.00 to 7.00"]
]}

---

ASSAY_SYSTEM: KRAS G12V (Homo sapiens (Human), UniProt P01116+P62937, G12V)
Sequence (P01116 other isoform, or with tags, fused parts or gaps G12V, one chain of several): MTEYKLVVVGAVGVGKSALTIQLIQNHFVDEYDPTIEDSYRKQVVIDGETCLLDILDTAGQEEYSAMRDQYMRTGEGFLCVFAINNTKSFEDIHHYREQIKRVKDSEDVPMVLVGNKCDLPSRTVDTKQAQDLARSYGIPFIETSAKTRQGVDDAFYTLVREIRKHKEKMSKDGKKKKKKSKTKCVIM
EXPERIMENTAL_PROTOCOL: Ras-Raf disruption/FRET/MOA assay (BRAF RBD, Cyclophilin A)
Format: biochemical
MEASUREMENT_CONDITIONS: read-out: KRAS G12V FRET IC50

{"columns": ["MOL_SMILES", "IC50"],
 "data": [
  ["CCn1c(-c2cccnc2COC)c2c3cc(ccc31)-c1cc(O)cc(c1)C[C@H](NC(=O)[C@H](C(C)C)N(C)C(=O)c1ccc(NC(=O)/C=C/CN(C)C)cn1)C(=O)N1CCC[C@H](N1)C(=O)OCC(C)(C)C2", "100 to 1000 nM"],
  ["CCn1c(-c2cccnc2[C@H](C)OC)c2c3cc(ccc31)-c1csc(n1)C[C@H](NC(=O)[C@H](C(C)C)N(C)C(=O)N1CCO[C@@H](CN(C)C)C1)C(=O)N1CCC[C@H](N1)C(=O)OCC(C)(C)C2", "100 to 1000 nM"],
  ["CCn1c(-c2cccnc2[C@H](C)OC)c2c3cc(ccc31)-c1cc(O)cc(c1)C[C@H](NC(=O)[C@H](C(C)C)N(C)C(=O)O[C@H]1CCN(C)C1)C(=O)N1CCC[C@H](N1)C(=O)OCC(C)(C)C2", "1000 to 10000 nM"],
  ["CCn1c(-c2cccnc2[C@H](C)OC)c2c3cc(ccc31)-c1cc(O)cc(c1)C[C@H](NC(=O)[C@H](C(C)C)N1CNCC1=O)C(=O)N1CCC[C@H](N1)C(=O)OCC(C)(C)C2", "100 to 1000 nM"],
  ["CCn1c(-c2cccnc2[C@H](C)OC)c2c3cc(ccc31)-c1csc(n1)C[C@H](NC(=O)[C@H](C(C)C)N(C)C(=O)N(C)C1CN(C)C1)C(=O)N1CCC[C@H](N1)C(=O)OCC(C)(C)C2", "1000 to 10000 nM"],
  ["CCn1c(-c2cccnc2[C@H](C)OC)c2c3cc(ccc31)-c1csc(n1)C[C@H](NC(=O)[C@H](C(C)C)N(C)C(=O)N1C[C@H]3COC[C@H]3C1)C(=O)N1CCC[C@H](N1)C(=O)OCC(C)(C)C2", "100 to 1000 nM"],
  ["CCn1c(-c2cccnc2[C@H](C)OC)c2c3cc(ccc31)-c1cc(O)cc(c1)C[C@H](NC(=O)[C@H](C(C)C)N(C)C(=O)C1(C(=O)O)CC1)C(=O)N1CCC[C@H](N1)C(=O)OCC(C)(C)C2", "> 10000 nM"]
]}
